Reported inhibition at 100 µM values follow for various compounds
Target: Human acetylcholinesterase (Homo sapiens, UniProt P22303)
Sequence (P22303 32-614): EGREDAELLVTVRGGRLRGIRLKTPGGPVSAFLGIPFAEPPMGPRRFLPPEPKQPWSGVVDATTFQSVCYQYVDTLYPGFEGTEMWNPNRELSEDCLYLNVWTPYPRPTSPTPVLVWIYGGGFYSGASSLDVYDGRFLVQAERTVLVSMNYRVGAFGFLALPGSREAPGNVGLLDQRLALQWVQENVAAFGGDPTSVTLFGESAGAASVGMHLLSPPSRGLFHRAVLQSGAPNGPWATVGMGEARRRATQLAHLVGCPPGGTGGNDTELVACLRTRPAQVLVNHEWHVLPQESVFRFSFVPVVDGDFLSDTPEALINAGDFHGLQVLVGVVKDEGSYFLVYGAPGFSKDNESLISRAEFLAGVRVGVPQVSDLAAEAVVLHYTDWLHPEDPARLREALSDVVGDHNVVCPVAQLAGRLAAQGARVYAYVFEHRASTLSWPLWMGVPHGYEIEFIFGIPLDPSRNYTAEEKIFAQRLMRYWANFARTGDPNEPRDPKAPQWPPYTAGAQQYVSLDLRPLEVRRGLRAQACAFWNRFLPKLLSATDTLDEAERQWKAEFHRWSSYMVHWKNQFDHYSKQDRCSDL
Test: AChE inhibition, modified Ellman's spectrophotometric method
Type: biochemical
Details: read-out: AChE % inhibition, 10^−4 M
State just the number; it will be interpreted in %.

Answered cases to consult:
C=CCN1CCN(Cc2ccc(C(=O)Nc3nc4cc(OC)ccc4s3)cc2)CC1 : 47.6
CCN1CCN(Cc2ccc(C(=O)Nc3nc4ccccc4s3)cc2)CC1 : 47.6
CC(C)N1CCN(Cc2ccc(C(=O)Nc3nc4ccccc4s3)cc2)CC1 : 46.9

Problem: Tell me inhibition at 100 µM reported for C=CCN1CCN(Cc2ccc(C(=O)Nc3nc4ccccc4s3)cc2)CC1
Solution: 48.2

Problem: Determine its reported inhibition at 100 µM: COc1ccc2sc(NC(=O)c3ccc(CN4CCN(C(C)C)CC4)cc3)nc2c1
Solution: 48.1

Problem: State its inhibition at 100 µM: CCN1CCN(Cc2ccc(C(=O)Nc3nc4cc(OC)ccc4s3)cc2)CC1
Solution: 48

----------
Target: human butyrylcholinesterase (Homo sapiens)
Sequence (P06276 29-602): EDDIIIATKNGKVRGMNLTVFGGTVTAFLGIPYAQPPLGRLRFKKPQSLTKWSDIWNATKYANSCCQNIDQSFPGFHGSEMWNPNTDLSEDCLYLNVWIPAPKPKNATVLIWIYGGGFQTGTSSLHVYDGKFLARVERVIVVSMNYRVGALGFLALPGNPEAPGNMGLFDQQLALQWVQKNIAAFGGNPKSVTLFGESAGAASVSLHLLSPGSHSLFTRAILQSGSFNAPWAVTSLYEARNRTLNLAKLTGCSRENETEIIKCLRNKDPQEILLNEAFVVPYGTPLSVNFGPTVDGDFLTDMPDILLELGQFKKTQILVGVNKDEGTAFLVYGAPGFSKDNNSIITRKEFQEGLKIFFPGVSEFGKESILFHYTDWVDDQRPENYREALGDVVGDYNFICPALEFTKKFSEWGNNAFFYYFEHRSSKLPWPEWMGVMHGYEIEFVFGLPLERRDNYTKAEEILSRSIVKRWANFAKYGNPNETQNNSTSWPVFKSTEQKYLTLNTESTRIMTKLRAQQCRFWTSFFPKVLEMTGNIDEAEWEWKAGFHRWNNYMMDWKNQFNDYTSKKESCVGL
Assay: BChE inhibition, modified Ellman's spectrophotometric method
Assay type: biochemical
Conditions: read-out: BChE % inhibition
Overview of reported inhibition at 100 µM across a group of compounds:
Give just the numeric value; % need not be written.

Reference set, count: 3
C=CCN1CCN(Cc2ccc(C(=O)Nc3nc4cc(OC)ccc4s3)cc2)CC1 [4j] : 22.6
CN1CCN(Cc2ccc(C(=O)Nc3nc4ccccc4s3)cc2)CC1 [4a] : 26.5
COc1ccc2sc(NC(=O)c3ccc(CN4CCN(CCN(C)C)CC4)cc3)nc2c1 [4m] : 31.9

Next item in the queue.
Problem: Provide only the value of recorded inhibition at 100 µM for C=CCN1CCN(Cc2ccc(C(=O)Nc3nc4ccccc4s3)cc2)CC1 [4c]
Solution: 20.2

----------
Target: MAO-A (Homo sapiens, UniProt P21397)
Sequence (P21397 1-527): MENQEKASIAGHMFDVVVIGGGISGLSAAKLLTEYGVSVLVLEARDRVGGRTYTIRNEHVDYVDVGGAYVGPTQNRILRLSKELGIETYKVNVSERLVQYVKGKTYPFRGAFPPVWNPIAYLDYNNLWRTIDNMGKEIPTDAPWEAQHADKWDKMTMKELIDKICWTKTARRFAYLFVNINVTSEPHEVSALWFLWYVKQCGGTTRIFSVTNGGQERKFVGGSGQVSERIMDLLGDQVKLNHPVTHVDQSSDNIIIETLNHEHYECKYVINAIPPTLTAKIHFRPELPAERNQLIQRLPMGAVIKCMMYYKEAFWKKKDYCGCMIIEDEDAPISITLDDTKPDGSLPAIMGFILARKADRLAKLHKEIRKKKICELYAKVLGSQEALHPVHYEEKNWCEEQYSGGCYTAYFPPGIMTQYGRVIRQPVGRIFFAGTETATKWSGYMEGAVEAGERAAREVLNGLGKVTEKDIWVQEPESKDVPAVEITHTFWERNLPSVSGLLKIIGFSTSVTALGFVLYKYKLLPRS
Assay: MAO-A inhibition, in vitro fluorometric method
Assay type: biochemical
Conditions: read-out: MAO-A % inhibition
This section presents compounds with their documented inhibition at 100 µM values.
Provide the reading as a plain figure in %.

COc1ccc2sc(NC(=O)c3ccc(CN4CCN(C)CC4)cc3)nc2c1 [4h] : 38.5

Problem: Kindly indicate its recorded inhibition at 100 µM. Item: C=CCN1CCN(Cc2ccc(C(=O)Nc3nc4cc(OC)ccc4s3)cc2)CC1 [4j]
Solution: 32.9

Problem: Output inhibition at 100 µM of CCN1CCN(Cc2ccc(C(=O)Nc3nc4ccccc4s3)cc2)CC1 [4b]
Solution: 36.4

Problem: Kindly indicate its recorded inhibition at 100 µM. Item: CN1CCN(Cc2ccc(C(=O)Nc3nc4ccccc4s3)cc2)CC1 [4a]
Solution: 38.6

Problem: Tell us which inhibition at 100 µM value is on record for C#CCN1CCN(Cc2ccc(C(=O)Nc3nc4ccccc4s3)cc2)CC1 [4d]
Solution: 39.7

Problem: Recall and state the measured inhibition at 100 µM for C=CCN1CCN(Cc2ccc(C(=O)Nc3nc4ccccc4s3)cc2)CC1 [4c] .
Solution: 34.6

All values here come from paper PMC9389372.
